Experiment: solubility of disodium salt in water by HPLC
Format: physicochemical
Conditions: thermodynamic from solid, distilled water
Structures can show the parent of a compound that is named as a salt.
value kind: solubility (mg/mL)

INSERT INTO results (compound, value_kind, test_result) VALUES
  ('C=C1CC[C@H](OP(=O)(O)O)C/C1=C/C=C1\CCC[C@@]2(C)C1CC[C@@H]2[C@H](C)CCCC(C)C (stereo partly shown) [Cholecalciferol phosphate disodium salt, cholecalciferol phosphate disodium salt]', 'solubility', 78.7);

----------
Assay: physchem
Assay type: physicochemical
Details: % Recovery, chemical stability with extraction fluid
value kind: recovery at 0.091 mg/mL

INSERT INTO results (molecule, test_result) VALUES
  ('C=C1CC[C@H](OP(=O)(O)O)C/C1=C/C=C1\CCC[C@@]2(C)C1CC[C@@H]2[C@H](C)CCCC(C)C (stereo in doubt) [Cholecalciferol phosphate acid, cholecalciferol phosphate acid]', '92.2%');
